Attribute: AC50
Molecular target: UniProtKB P46098
Sequence (P46098 whole entry): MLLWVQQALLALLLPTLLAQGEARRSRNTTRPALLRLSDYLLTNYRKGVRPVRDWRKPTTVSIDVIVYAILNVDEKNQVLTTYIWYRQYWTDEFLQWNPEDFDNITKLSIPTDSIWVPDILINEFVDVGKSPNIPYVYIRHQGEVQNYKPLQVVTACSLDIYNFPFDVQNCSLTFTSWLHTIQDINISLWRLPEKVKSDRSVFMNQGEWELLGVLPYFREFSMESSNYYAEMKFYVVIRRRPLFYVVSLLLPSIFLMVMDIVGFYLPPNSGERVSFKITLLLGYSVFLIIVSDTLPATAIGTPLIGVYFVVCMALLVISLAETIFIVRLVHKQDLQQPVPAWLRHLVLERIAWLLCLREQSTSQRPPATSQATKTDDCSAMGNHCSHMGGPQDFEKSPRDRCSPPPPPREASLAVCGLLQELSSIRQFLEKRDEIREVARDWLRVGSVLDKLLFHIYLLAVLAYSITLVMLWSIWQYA
Format: functional

{"compound": "CN1C(=O)CC(C)(c2ccccc2)C1=O (configuration not stated) [METHSUXIMIDE]", "testValue": "> 30 µM"}
{"compound": "CCCCCCC(C)(C)c1cc(O)c2c(c1)OC(C)(C)C1CCC(=O)CC21 (configuration not stated)", "testValue": "> 30 µM"}
{"compound": "CN[C@@H]1[C@H](O)[C@H](NC)[C@H]2O[C@@]3(O)C(=O)C[C@@H](C)O[C@H]3O[C@@H]2[C@H]1O", "testValue": "> 30 µM"}
{"compound": "CC(=O)O[C@@]12CO[C@@H]1C[C@H](O)[C@@]1(C)C(=O)[C@H](O)C3=C(C)[C@@H](OC(=O)[C@H](O)[C@@H](NC(=O)OC(C)(C)C)c4ccccc4)C[C@@](O)([C@@H](OC(=O)c4ccccc4)[C@H]21)C3(C)C [DOCETAXEL ANHYDROUS]", "testValue": "> 30 µM"}
{"compound": "CCNC(C)Cc1cccc(C(F)(F)F)c1 (configuration not stated)", "testValue": "> 30 µM"}
{"compound": "CN1C(=O)N(C)C2C1N(C)C(=O)N2C (configuration not stated)", "testValue": "> 30 µM"}

Could you tell me which AC50 is on file for [H]/N=C(/N)c1ccc(NCc2nc3cc(C(=O)N(CCC(=O)O)c4ccccn4)ccc3n2C)cc1 ?
> 30 µM

Each recorded value in this set is attributed to ChEMBL document CHEMBL5291721.
